B1: Zinc finger homeobox protein 4, residues 2183 to 2238; numbered along this chain, Q86UP3 (parent)
chain: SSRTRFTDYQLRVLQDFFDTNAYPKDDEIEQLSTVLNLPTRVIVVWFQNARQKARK

Variants of: B1
Assay Method Text: abundance fitness (aPCA) (normalised: wild type 0, dead -1); higher = more abundant; growth selection in yeast, the domain comes from the species named
Condition Label: Homo sapiens
Would you kindly list abundance fitness for each of these variants?

Specify measured abundance fitness for V35N .
-0.427

Specify measured abundance fitness for L32T .
-1.05

Specify measured abundance fitness for F17N .
0.049

Specify measured abundance fitness for Y9S .
0.14

Specify measured abundance fitness for L36K .
-0.794

Specify measured abundance fitness for D27H .
0.048

Specify measured abundance fitness for D27R .
-0.038

Specify measured abundance fitness for T34E .
-0.165

Specify measured abundance fitness for R12N .
-0.017

Specify measured abundance fitness for R12P .
-0.608

Specify measured abundance fitness for L36Y .
-0.8

Specify measured abundance fitness for S1I .
-0.026

Specify measured abundance fitness for Q31A .
-0.188

Specify measured abundance fitness for R3A .
0.358

Specify measured abundance fitness for P24R .
-0.657

Specify measured abundance fitness for L14M .
0.049

Specify measured abundance fitness for D26G .
0.005

Specify measured abundance fitness for N37I .
-0.172

Specify measured abundance fitness for T4Y .
0.323

Specify measured abundance fitness for D8R .
-0.309

Specify measured abundance fitness for V13P .
-1.02

Specify measured abundance fitness for I29Q .
-0.447

Specify measured abundance fitness for I29M .
-0.03

Specify measured abundance fitness for Q31P .
-0.343

Specify measured abundance fitness for N21I .
-0.187

Specify measured abundance fitness for Q15V .
-0.095

Specify measured abundance fitness for D26I .
-0.427

Specify measured abundance fitness for Q31V .
-0.206

Specify measured abundance fitness for T34C .
-0.106

Specify measured abundance fitness for Q10F .
-0.928

Specify measured abundance fitness for E28K .
-0.011

Specify measured abundance fitness for L32M .
-0.019

Specify measured abundance fitness for D26Q .
-0.031

Specify measured abundance fitness for Q10G .
-0.69

Specify measured abundance fitness for R12M .
-0.631

Specify measured abundance fitness for K25E .
-0.455

Specify measured abundance fitness for Y23F .
-0.084

Specify measured abundance fitness for F17V .
-0.25

Specify measured abundance fitness for T34K .
0.045

Specify measured abundance fitness for Q31Y .
-0.085

Specify measured abundance fitness for L14Y .
-1.08

Specify measured abundance fitness for N21D .
-0.128

Specify measured abundance fitness for N21L .
-0.488

Specify measured abundance fitness for L14Q .
-1.02

Specify measured abundance fitness for L14G .
-0.876

Specify measured abundance fitness for F6H .
-0.328
